Target: CHIKV nsP2^pro (Chikungunya virus)
Assay: CHIKV nsP2^pro FRET-based inhibition assay
Format: biochemical
Conditions: IC50, 1 µM protease, 3 µM substrate; mean ± SD, n=3
Listed below: IC50 values for each entry.

compound	IC50, µM
COc1ccc(C2CC(=O)c3c(O)cc(O)cc3O2)cc1O (centres unmarked) [HST, 3’,5,7-trihydroxy-4’-methoxyflavanone]	2.5
COc1ccc([C@@H]2CC(=O)c3c(O)cc(O[C@@H]4O[C@H](CO[C@@H]5O[C@@H](C)[C@H](O)[C@@H](O)[C@H]5O)[C@@H](O)[C@H](O)[C@H]4O)cc3O2)cc1O [HSD]	7.1

* * *

Target: CHIKV nsP2^pro (Chikungunya virus)
Experiment: CHIKV nsP2^pro FRET-based inhibition assay
Format: biochemical
Details: IC50 mean, HST; mean of triplicate
pIC50: −log10 of the molar value.
metric: pIC50

> print(dat)
                                   molecule                      measuredtarget  observedvalue
1  COc1ccc(C2CC(=O)c3c(O)cc(O)cc3O2)cc1O (stereo not shown) [HST, 3’,5,7-trihydroxy-4’-methoxyflavanone]  CHIKV nsP2^pro (Chikungunya virus)           5.61

* * *

Target: ZIKV NS2B/NS3^pro (Zika virus, UniProt A0A024B7W1)
Sequence (A0A024B7W1 1425-1464): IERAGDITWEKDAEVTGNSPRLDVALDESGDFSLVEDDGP
Sequence (A0A024B7W1 1503-1680): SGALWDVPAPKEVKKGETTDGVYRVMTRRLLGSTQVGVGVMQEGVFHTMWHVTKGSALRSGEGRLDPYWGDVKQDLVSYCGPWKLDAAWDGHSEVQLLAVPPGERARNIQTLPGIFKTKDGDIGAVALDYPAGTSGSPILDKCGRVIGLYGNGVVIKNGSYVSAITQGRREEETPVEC
Assay: ZIKV NS2B/NS3^pro inhibition assay, fluorogenic substrate Pyr-Arg-Thr-Lys-Arg-AMC
Conditions: 3 nM protease, 20 µM substrate; mean ± SD, n=3
pIC50: −log10 of the molar value.
metric: pIC50

> print(dat)
                                   compound  metric  observedvalue
1  COc1ccc(C2CC(=O)c3c(O)cc(O)cc3O2)cc1O (stereo not shown) [HST, 3’,5,7-trihydroxy-4’-methoxyflavanone]   pIC50         > 4.89

* * *

Target: ZIKV NS2B/NS3^pro (Zika virus, UniProt A0A024B7W1)
Experiment: Intrinsic Trp fluorescence titration (KD)
Settings: Trp fluorescence quenching, ± STD
metric: Kd (µM)

> print(dat)
                                   compound  observedvalue
1  COc1ccc(C2CC(=O)c3c(O)cc(O)cc3O2)cc1O (stereo not shown) [HST, 3’,5,7-trihydroxy-4’-methoxyflavanone]           17.8

* * *

Target: CHIKV nsP2^pro (Chikungunya virus, UniProt Q8JUX6)
Sequence (Q8JUX6 1001-1333): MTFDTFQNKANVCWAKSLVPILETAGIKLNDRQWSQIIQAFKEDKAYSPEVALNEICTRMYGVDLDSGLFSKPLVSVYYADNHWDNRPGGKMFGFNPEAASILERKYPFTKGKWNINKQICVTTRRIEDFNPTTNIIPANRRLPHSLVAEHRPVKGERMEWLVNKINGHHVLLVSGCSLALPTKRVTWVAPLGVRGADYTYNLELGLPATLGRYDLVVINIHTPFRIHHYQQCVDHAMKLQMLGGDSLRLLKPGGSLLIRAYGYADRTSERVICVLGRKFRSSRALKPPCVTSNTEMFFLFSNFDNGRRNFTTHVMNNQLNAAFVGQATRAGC
Assay: CHIKV nsP2^pro FRET-based inhibition assay
Assay type: biochemical
Conditions: pIC50, from IC50 by online tool

smi	IC50
COc1ccc([C@@H]2CC(=O)c3c(O)cc(O[C@@H]4O[C@H](CO[C@@H]5O[C@@H](C)[C@H](O)[C@@H](O)[C@H]5O)[C@@H](O)[C@H](O)[C@H]4O)cc3O2)cc1O	6.31 µM
